Value source: ChEMBL document CHEMBL1275296

tested on: Streptococcus pyogenes; experiment: Antibacterial activity against Streptococcus pyogenes after 24 hrs by broth dilution method; format: functional
quantity_name: MIC (µg/mL)

Completed entries (count: 4):
- given_smiles: "O=c1c(Cc2ccc(Cl)cc2Cl)nnc2scc(-c3cc(F)c(Cl)cc3Cl)n12"
  unit_descriptor: "µg/mL"
  MIC: 6.25
- given_smiles: "O=c1c(Cc2ccc(Cl)cc2Cl)nnc2scc(-c3ccc(Cl)cc3)n12"
  unit_descriptor: "µg/mL"
  MIC: 6.25
- given_smiles: "O=c1c(Cc2ccc(Cl)cc2)nnc2scc(-c3cc(F)c(Cl)cc3Cl)n12"
  unit_descriptor: "µg/mL"
  MIC: 6.25
- given_smiles: "O=c1c(Cc2ccc(Cl)cc2Cl)nnc2scc(-c3ccc([N+](=O)[O-])cc3)n12"
  unit_descriptor: "µg/mL"
  MIC: 6.25

(I) O=c1c(Cc2ccc(Cl)cc2)nnc2scc(-c3ccc(Br)cc3)n12
(II) COc1ccc(-c2csc3nnc(Cc4ccc(Cl)cc4Cl)c(=O)n23)cc1
Prompt line: Just curious, which one has the larger MIC reading, I or II ? Write down the label of the entry you select.
Response line: II

###

tested on: Streptococcus pyogenes; experiment: Antibacterial activity against Streptococcus pyogenes after 24 hrs by broth dilution method; assay type: functional
quantity_name: MIC (µg/mL)

- given_smiles: "O=c1c(Cc2ccc(Cl)cc2)nnc2scc(-c3ccc(Cl)cc3)n12"
  MIC [µg/mL]: 6.25
- given_smiles: "O=c1c(Cc2ccc(Cl)cc2)nnc2scc(-c3ccc([N+](=O)[O-])cc3)n12"
  MIC [µg/mL]: 25
- given_smiles: "O=C(O)c1cn(C2CC2)c2cc(N3CCNCC3)c(F)cc2c1=O"
  MIC [µg/mL]: 6.25

(I) COc1ccc(-c2csc3nnc(Cc4ccc(Cl)cc4)c(=O)n23)cc1
(II) O=c1c(Cc2ccc(Cl)cc2Cl)nnc2scc(-c3ccc(Br)cc3)n12
Prompt line: Just curious, which one has the larger MIC reading, I or II ? Write down the label of the entry you select.
Response line: I

###

Examples of compounds with documented inhibition zone (IZ) follow.
system: Pseudomonas aeruginosa; assay: Antibacterial activity against Pseudomonas aeruginosa after 24 hrs; type: functional; further: test concentration or dose not given here
Please give a number only; it is taken to be in mm.

Completed entries (count: 5):
- given_smiles: "O=c1c(Cc2ccc(Cl)cc2Cl)nnc2scc(-c3ccc([N+](=O)[O-])cc3)n12"
  inhibition zone (IZ) (mm): 27
- given_smiles: "O=c1c(Cc2ccc(Cl)cc2Cl)nnc2scc(-c3ccc(Br)cc3)n12"
  inhibition zone (IZ) (mm): 29
- given_smiles: "O=c1c(Cc2ccc(Cl)cc2)nnc2scc(-c3ccc([N+](=O)[O-])cc3)n12"
  inhibition zone (IZ) (mm): 8
- given_smiles: "O=c1c(Cc2ccc(Cl)cc2)nnc2scc(-c3ccc(Br)cc3)n12"
  inhibition zone (IZ) (mm): 14
- given_smiles: "O=c1c(Cc2ccc(Cl)cc2Cl)nnc2scc(-c3cc(F)c(Cl)cc3Cl)n12"
  inhibition zone (IZ) (mm): 31

Prompt line: Quick one: inhibition zone (IZ) of `O=c1c(Cc2ccc(Cl)cc2Cl)nnc2scc(-c3ccc(Cl)cc3)n12` ?
Response line: 32

Prompt line: Would you kindly repeat that for `O=c1c(Cc2ccc(Cl)cc2)nnc2scc(-c3ccc(Cl)cc3)n12` ?
Response line: 33

Prompt line: Would you kindly repeat that for `COc1ccc(-c2csc3nnc(Cc4ccc(Cl)cc4)c(=O)n23)cc1` ?
Response line: 14

Prompt line: Would you kindly repeat that for `O=c1c(Cc2ccc(Cl)cc2)nnc2scc(-c3cc(F)c(Cl)cc3Cl)n12` ?
Response line: 29

Prompt line: Would you kindly repeat that for `O=C(O)c1cn(C2CC2)c2cc(N3CCNCC3)c(F)cc2c1=O` ?
Response line: 33

###

test system: Talaromyces marneffei; experiment: Antifungal activity against Penicillium marneffei after 48 hrs; assay type: functional
quantity_name: MIC (µg/mL)

- given_smiles: "O=c1c(Cc2ccc(Cl)cc2Cl)nnc2scc(-c3ccc(Cl)cc3)n12"
  experimental_system: "Talaromyces marneffei"
  MIC [µg/mL]: 6.25
- given_smiles: "O=c1c(Cc2ccc(Cl)cc2)nnc2scc(-c3ccc([N+](=O)[O-])cc3)n12"
  experimental_system: "Talaromyces marneffei"
  MIC [µg/mL]: 6.25
- given_smiles: "COc1ccc(-c2csc3nnc(Cc4ccc(Cl)cc4Cl)c(=O)n23)cc1"
  experimental_system: "Talaromyces marneffei"
  MIC [µg/mL]: 25
- given_smiles: "O=c1c(Cc2ccc(Cl)cc2Cl)nnc2scc(-c3cc(F)c(Cl)cc3Cl)n12"
  experimental_system: "Talaromyces marneffei"
  MIC [µg/mL]: 6.25
- given_smiles: "O=c1c(Cc2ccc(Cl)cc2)nnc2scc(-c3ccc(Cl)cc3)n12"
  experimental_system: "Talaromyces marneffei"
  MIC [µg/mL]: 6.25

(I) O=c1c(Cc2ccc(Cl)cc2)nnc2scc(-c3cc(F)c(Cl)cc3Cl)n12
(II) COc1ccc(-c2csc3nnc(Cc4ccc(Cl)cc4)c(=O)n23)cc1
Prompt line: Just curious, which one has the larger MIC reading, I or II ? Write down the label of the entry you select.
Response line: II

###

test system: Trichophyton mentagrophytes; assay: Antifungal activity against Trichophyton mentagrophytes by measuring inhibition zone after 48 hrs; assay type: functional; further: test concentration or dose not given here
quantity_name: inhibition zone (IZ) (mm)
Please give a number only; it is taken to be in mm.

Completed entries (count: 5):
- given_smiles: "O=c1c(Cc2ccc(Cl)cc2)nnc2scc(-c3ccc(Cl)cc3)n12"
  inhibition zone (IZ) [mm]: 25
- given_smiles: "O=c1c(Cc2ccc(Cl)cc2Cl)nnc2scc(-c3ccc(Cl)cc3)n12"
  inhibition zone (IZ) [mm]: 21
- given_smiles: "O=c1c(Cc2ccc(Cl)cc2Cl)nnc2scc(-c3cc(F)c(Cl)cc3Cl)n12"
  inhibition zone (IZ) [mm]: 22
- given_smiles: "O=c1c(Cc2ccc(Cl)cc2Cl)nnc2scc(-c3ccc(Br)cc3)n12"
  inhibition zone (IZ) [mm]: 11
- given_smiles: "O=c1c(Cc2ccc(Cl)cc2)nnc2scc(-c3ccc([N+](=O)[O-])cc3)n12"
  inhibition zone (IZ) [mm]: 7

Prompt line: // map `O=c1c(Cc2ccc(Cl)cc2)nnc2scc(-c3ccc(Br)cc3)n12` to recorded inhibition zone (IZ) (system: Trichophyton mentagrophytes)
Response line: 12

Prompt line: Would you kindly repeat that for `COc1ccc(-c2csc3nnc(Cc4ccc(Cl)cc4Cl)c(=O)n23)cc1` ?
Response line: 17

###

test system: Escherichia coli; experiment: Antibacterial activity against Escherichia coli after 24 hrs; assay type: functional; further: test concentration or dose not given here
Examples of compounds with documented inhibition zone (IZ) follow.
Please give a number only; it is taken to be in mm.

- given_smiles: "O=c1c(Cc2ccc(Cl)cc2)nnc2scc(-c3ccc(Br)cc3)n12"
  experimental_system: "Escherichia coli"
  inhibition zone (IZ) / mm: 9
- given_smiles: "O=c1c(Cc2ccc(Cl)cc2)nnc2scc(-c3ccc(Cl)cc3)n12"
  experimental_system: "Escherichia coli"
  inhibition zone (IZ) / mm: 26
- given_smiles: "O=c1c(Cc2ccc(Cl)cc2)nnc2scc(-c3cc(F)c(Cl)cc3Cl)n12"
  experimental_system: "Escherichia coli"
  inhibition zone (IZ) / mm: 27
- given_smiles: "O=c1c(Cc2ccc(Cl)cc2Cl)nnc2scc(-c3ccc(Cl)cc3)n12"
  experimental_system: "Escherichia coli"
  inhibition zone (IZ) / mm: 29
- given_smiles: "O=C(O)c1cn(C2CC2)c2cc(N3CCNCC3)c(F)cc2c1=O"
  experimental_system: "Escherichia coli"
  inhibition zone (IZ) / mm: 30
- given_smiles: "O=c1c(Cc2ccc(Cl)cc2)nnc2scc(-c3ccc([N+](=O)[O-])cc3)n12"
  experimental_system: "Escherichia coli"
  inhibition zone (IZ) / mm: 25

Prompt line: Quick one: inhibition zone (IZ) of `O=c1c(Cc2ccc(Cl)cc2Cl)nnc2scc(-c3ccc([N+](=O)[O-])cc3)n12` ?
Response line: 15

Prompt line: Would you kindly repeat that for `COc1ccc(-c2csc3nnc(Cc4ccc(Cl)cc4Cl)c(=O)n23)cc1` ?
Response line: 22

Prompt line: Would you kindly repeat that for `O=c1c(Cc2ccc(Cl)cc2Cl)nnc2scc(-c3cc(F)c(Cl)cc3Cl)n12` ?
Response line: 29

Prompt line: Would you kindly repeat that for `O=c1c(Cc2ccc(Cl)cc2Cl)nnc2scc(-c3ccc(Br)cc3)n12` ?
Response line: 26

###

tested on: Trichophyton mentagrophytes; experiment: Antifungal activity against Trichophyton mentagrophytes by measuring inhibition zone after 48 hrs; format: functional; further: test concentration or dose not given here
Examples of compounds with documented inhibition zone (IZ) follow.
Please give a number only; it is taken to be in mm.

Completed entries (count: 2):
- given_smiles: "COc1ccc(-c2csc3nnc(Cc4ccc(Cl)cc4)c(=O)n23)cc1"
  unit_descriptor: "mm"
  inhibition zone (IZ): 14
- given_smiles: "C[C@@H]1[C@H](O)[C@@H](C)/C=C/C=C/C=C/C=C/C=C/C=C/C=C/[C@H](O[C@@H]2O[C@H](C)[C@@H](O)[C@H](N)[C@@H]2O)C[C@@H]2O[C@](O)(C[C@@H](O)C[C@@H](O)[C@H](O)CC[C@@H](O)C[C@@H](O)CC(=O)O[C@H]1C)C[C@H](O)[C@H]2C(=O)O"
  unit_descriptor: "mm"
  inhibition zone (IZ): 23

Prompt line: Quick one: inhibition zone (IZ) of `O=c1c(Cc2ccc(Cl)cc2)nnc2scc(-c3cc(F)c(Cl)cc3Cl)n12` ?
Response line: 21
